# Tested system: T1, human TROP2 protein (Sino Biological, #10428-H08H) (human, UniProt P09758 27-274)
# T1 construct: bought protein; also called human Trop2 protein antigen (His tag); not shown: His tag
# T1 sequence (looked up): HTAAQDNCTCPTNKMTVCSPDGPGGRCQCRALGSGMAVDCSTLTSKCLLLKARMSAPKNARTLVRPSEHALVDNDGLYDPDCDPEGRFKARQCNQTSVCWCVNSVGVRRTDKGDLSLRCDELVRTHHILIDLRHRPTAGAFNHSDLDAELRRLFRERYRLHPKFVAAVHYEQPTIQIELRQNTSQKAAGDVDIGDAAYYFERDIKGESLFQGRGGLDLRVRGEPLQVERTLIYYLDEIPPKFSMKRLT
# Assay method text: BLI, Octet RED96, AHC sensor
Experimental endpoint: koff (s⁻¹)
Form entry: value (s⁻¹) — number only.

Binder: PR001163 (antibody, human IgG1, kappa, V domains shown, fully human IgG1/kappa; also called antibody No. (24)) VH: QVQLVESGGDVVQPGRSLRLSCEASGFTFSHYGMHWVRQAPGKGLEWVAVVWYDGIKKYYVESVKGRFTISRDNSKNTLYLQMNRLRAEDTAVYYCARDGGFGELNYYGLDVWGQGTTVTVSS VL: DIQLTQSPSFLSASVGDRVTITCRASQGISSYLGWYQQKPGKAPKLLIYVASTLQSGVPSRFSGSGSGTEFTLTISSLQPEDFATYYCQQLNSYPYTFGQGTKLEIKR
Experimental endpoint: koff
Data value: 8.34e-05

Turning to the following binder.
Challenge: Value lookup for koff; key = PR001154 (antibody, human IgG1, kappa, V domains shown, fully human IgG1/kappa; also called antibody No. (17)) VH: QVQLVESGGGVVQPGRSLRLSCEASGFTFSHYGMHWVRQAPGKGLEWVAVIWYDGIKKYYIESVKGRFIISRDNSKNTLYLQMNRLRAEDTAVYYCARDGGFGELNYYGLDVWGQGTTVTVSS VL: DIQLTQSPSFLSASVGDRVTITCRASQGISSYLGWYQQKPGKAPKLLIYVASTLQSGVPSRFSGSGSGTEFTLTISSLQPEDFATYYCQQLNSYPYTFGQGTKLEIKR
Response given: 9.23e-05
